# Test system: MMP1 expression by activated synovial fibroblasts (RASFs)
# METHOD_SUMMARY: MMP assay: MMP1 expression by RASFs triggered with TNF-α (MMP1 ELISA)
# Assay type: cell-based
# EXPERIMENTAL_CONTEXT: Fibroblast, 48 h, TNF-α trigger 10 ng/mL, semi-quantitative score, read-out: REDUCTION MMP1/TNFa
QUANTITY_NAME: IC50

Check out these entries, answers already filled in.
CCC(CC)N1CCN(c2ccc(Nc3ccc(-c4cn[nH]c4)n4ncnc34)cc2)CC1 :: 1000 to 5000 nM
NC(=O)c1cc(-c2ccc(Nc3ccc(N4CCOCC4)cc3)c3ncnn23)ccc1F :: > 10000 nM
CCN1CCN(c2ccc(Nc3ccc(-c4ccc(C(N)=O)cc4)n4ncnc34)cc2)CC1 :: < 500 nM

Then this compound:
Prompt: # get_value(readout='IC50', item= C[C@@H]1CN(C)[C@@H](C)CN1c1ccc(Nc2ccc(-c3cc[nH]c(=O)c3)n3ncnc23)cc1 (racemic) )
Response: 501 to 1000 nM
